- System: U251 CNS
The reply should name one outcome from Yes (active), No (inactive)

Record excerpt, results attached:
{"Item Smiles": "Cc1ccc(NC(=O)CSc2nnc3n(Cc4ccccc4)c(=O)c4c(C)c(C(N)=O)sc4n23)cc1", "Label Value": "No"}
{"Item Smiles": "CO/N=C(\\COc1ccc2oc(-c3ccccc3)cc(=O)c2c1)c1ccc(OC)cc1", "Label Value": "No"}
{"Item Smiles": "O=C(N/N=C/c1ccc(O)cc1O)c1cccc(Nc2ccnc(C(F)(F)F)c2)c1", "Label Value": "No"}

IN: Test call, this compound: Cc1cc(-c2ccccn2)cc(C)c1/C=C/c1cncc(-c2nn[nH]n2)c1
OUT: No

IN: Fill in: this test's call for O=C(NO)[C@@H](Cc1ccccc1)NS(=O)(=O)c1ccc(-c2ccccc2)cc1 is ___
OUT: No

IN: Status in this test for COC(=O)c1cc2c3ccccc3[nH]c2c2sccc12 ?
OUT: No

IN: Returns: the outcome recorded for CC(=O)O[C@H](C[C@H](C(C)C)N(C)C(=O)[C@@H](NC(=O)[C@H]1CCCN1C)C(C)C)c1nc(C(=O)N[C@@H](Cc2ccccc2)C[C@H](C)C(=O)O)c(C)s1 in this assay.
OUT: Yes

IN: Which result was noted for this compound in the test: OCCNc1nc(Nc2ccc(Cl)c(Cl)c2)nc2ccccc12
OUT: No

###

- Test system: SNB-19 CNS
- Test Description: NCI tumour cell line growth inhibition, 48 h; in the data active = GI50 below about 0.43 µM; inactive = the rest
Give your call using only these classes: 1 for active, -1 for inactive

Please review the following examples before continuing.
{"Compound": "Cc1cc(-c2ccccn2)cc(C)c1/C=C/c1cncc(-c2nn[nH]n2)c1", "Label Value": -1}
{"Compound": "CC(=O)O[C@H]1[C@@H]2OC(=O)C(CSc3ccccc3)[C@@H]2C[C@H]2O[C@]2(C)CC/C=C(\\C)CCC[C@@H]1C (stereo partly drawn)", "Label Value": -1}
{"Compound": "N#Cc1cc(S(=O)(=O)Nc2nnc(-c3ccccc3)c(-c3ccccc3)n2)c(SCc2ccccc2)cc1Cl", "Label Value": -1}
{"Compound": "C/C(=C\\c1cc(C(F)(F)F)n(-c2ccc(N)cc2)n1)[C@@H]1C[C@@H]2O[C@]2(C)CCC[C@H](C)[C@H](O)[C@@H](C)C(=O)C(C)(C)[C@@H](O)CC(=O)O1", "Label Value": 1}
{"Compound": "CC1(N)CCN(c2cnc(-c3cccc(Cl)c3Cl)c(N)n2)CC1", "Label Value": -1}
{"Compound": "CCOC(=O)C#Cc1c(C(=O)OCC)nnn1Cc1ccc([N+](=O)[O-])cc1", "Label Value": -1}
{"Compound": "Cc1cn2c(/C=N/N=C(N)N)c(-c3ccccn3)nc2s1", "Label Value": -1}

Now take the following compound into account.
IN: Query: recorded result category for O=C1C=CC(=O)N1c1cccc(N2C(=O)C=CC2=O)c1 in this test
OUT: -1

###

- System: SF-295 CNS
- Test Description: NCI tumour cell line growth inhibition, 48 h; in the data active means GI50 below about 0.43 µM; inactive means the rest
Mark one answer only. Choices: active, inactive

Previously resolved entries follow.
{"Compound": "O=C(/C=C/C12c3ccccc3C(c3ccccc31)C1C(=O)NC(=O)C12)c1ccc(F)cc1 (centres undefined)", "Label Value": "inactive"}
{"Compound": "Cc1cn2c(/C=N/N=C(N)N)c(-c3ccccn3)nc2s1", "Label Value": "inactive"}
{"Compound": "Oc1c(Cl)cc(Cl)cc1C(c1cc(Cl)cc(Cl)c1O)C(Cl)(Cl)Cl", "Label Value": "inactive"}
{"Compound": "Cc1ccc(NC(=O)CSc2nnc3n(Cc4ccccc4)c(=O)c4c(C)c(C(N)=O)sc4n23)cc1", "Label Value": "inactive"}
{"Compound": "CC(CN(C)C)Oc1ccccc1NC1=C(Cl)C(=O)C(Nc2ccccc2OC(C)CN(C)C)=C(Cl)C1=O (centres undefined)", "Label Value": "inactive"}

IN: # fetch the recorded call for CCOC(=O)C1=C(C)N(Cc2ccc(Cl)cc2Cl)C2(O)C=CC(=O)C3=C(O)c4ccccc4C(=O)C312 (centres undefined) here
OUT: inactive

IN: Check the results log: what was the call for Cc1cc(N2CCOCC2)nc(N(CCCNc2ccnc3cc(Cl)ccc23)Cc2ccco2)n1 ?
OUT: inactive

IN: Given O=C(NO)[C@@H](Cc1ccccc1)NS(=O)(=O)c1ccc(-c2ccccc2)cc1 , state the outcome it received in this test.
OUT: inactive

IN: What is the recorded call for this compound in the test? NS(=O)(=O)c1ccc(N(/C=C/C(=O)C(F)(F)F)Cc2ccc(Cl)cc2)cc1
OUT: inactive

IN: Any idea what this test logged for Cc1ccc(C(=O)/C(=C\c2ccc([N+](=O)[O-])cc2)S(=O)Cc2ccc(Cl)cc2)cc1 (centres undefined) ?
OUT: inactive

IN: What did this assay record as the result for C=C(CO)[C@@H]1CC[C@]2(COC3CCCCO3)CC[C@]3(C)[C@H](CC[C@@H]4[C@@]5(C)C=C(C=O)C(=O)C(C)(C)[C@@H]5CC[C@]43C)[C@@H]12 (some centres undefined) ?
OUT: inactive

IN: What is the recorded call for this compound in the test? N#Cc1cc(S(=O)(=O)Nc2nnc(-c3ccccc3)c(-c3ccccc3)n2)c(SCc2ccccc2)cc1Cl
OUT: inactive

IN: What did this assay record as the result for Clc1ccccc1CNc1c2ccccc2nc2ccccc12 ?
OUT: inactive

IN: Identify the outcome logged in this assay for the compound shown: Cc1cc(-c2ccccn2)cc(C)c1/C=C/c1cncc(-c2nn[nH]n2)c1
OUT: inactive

IN: Call for entry CCN(CC)C(=S)SCN1C(=O)c2ccccc2S1(=O)=O :
OUT: inactive

IN: Just curious, what result did N#Cc1c(N)nc(N2CCOCC2)c(C#N)c1-c1ccccn1 get here?
OUT: inactive

IN: Hi team, can someone confirm the assay call for NS(=O)(=O)CC1CC[CH-]CC1.[Cl-].[Cl-].[Cl-].[Cl-].[Cl-].[Sb+5].c1ccncc1 ?
OUT: inactive

IN: Hi, sorry to bother you, what did the test record for O=C1c2ccccc2-c2c1c1c(O)cccc1n2Cc1ccccn1 ?
OUT: inactive

IN: How did this test come out for COc1cc(-c2csc(NC(=O)Nc3ccc(C(F)(F)F)cc3)n2)cc(OC)c1OC ?
OUT: inactive

IN: Recorded test outcome, item COC(=O)C12OCC34C(CC5C(C)C6=CC(=O)OC6=CC5(C)C3C(O)C1O)OC(=O)C(O)C24 (centres undefined)
OUT: active

IN: Dear all, I need the recorded test outcome for C/C(=C\c1cc(C(F)(F)F)n(-c2ccc(N)cc2)n1)[C@@H]1C[C@@H]2O[C@]2(C)CCC[C@H](C)[C@H](O)[C@@H](C)C(=O)C(C)(C)[C@@H](O)CC(=O)O1 , thank you.
OUT: active

IN: Short answer needed: outcome of this test for OCCNc1nc(Nc2ccc(Cl)c(Cl)c2)nc2ccccc12 ?
OUT: inactive

IN: Hello, I am checking results. What call was entered for CCn1c(-c2nonc2N)nc2c(C#CC(C)(C)O)ncc(OC[C@H]3CCCNC3)c21 ?
OUT: inactive

IN: Tell me the recorded outcome of this test for CCc1ccc(C(=Nc2ccc(N(C)C(=O)CN3CCN(C)CC3)cc2)c2c(O)[nH]c3ccc(C(=O)OC)cc23)cc1 .
OUT: inactive

###

- Test system: COLO 205 colon
- Test Description: NCI tumour cell line growth inhibition, 48 h
Assay Endpoint: TGI (µM)
Please give a number only; it is taken to be in µM.

Below, each entry is followed by its recorded TGI result.
{"Molecule": "C=C(CO)[C@@H]1CC[C@]2(COC3CCCCO3)CC[C@]3(C)[C@H](CC[C@@H]4[C@@]5(C)C=C(C=O)C(=O)C(C)(C)[C@@H]5CC[C@]43C)[C@@H]12 (stereo not given in full)", "TGI [µM]": 0.833}
{"Molecule": "CCCCCCCCCNC(=O)/C=C/c1ccc(O)c(O)c1", "TGI [µM]": 54.3}

Please examine the following record next.
IN: Find the measured TGI: item CCOC(=O)C#Cc1c(C(=O)OCC)nnn1Cc1ccc([N+](=O)[O-])cc1 , target or system COLO 205 colon.
OUT: 3.79

###

- Test system: SW-620 colon
- Test Description: NCI tumour cell line growth inhibition, 48 h; in the data active means GI50 below about 0.43 µM; inactive means the rest
Can you answer with just one of these options? active, inactive

{"Compound": "O=C(NO)[C@@H](Cc1ccccc1)NS(=O)(=O)c1ccc(-c2ccccc2)cc1", "Test Target": "SW-620 colon", "Label Value": "inactive"}
{"Compound": "O=C(/C=C/C12c3ccccc3C(c3ccccc31)C1C(=O)NC(=O)C12)c1ccc(F)cc1 (centres undefined)", "Test Target": "SW-620 colon", "Label Value": "inactive"}
{"Compound": "COC(=O)c1cc2c3ccccc3[nH]c2c2sccc12", "Test Target": "SW-620 colon", "Label Value": "inactive"}
{"Compound": "CN(CC(=O)Nc1nc2ccccc2[nH]1)S(=O)(=O)c1ccc(Cl)cc1", "Test Target": "SW-620 colon", "Label Value": "inactive"}
{"Compound": "CCOC(=O)C1=C(C)N(Cc2ccc(Cl)cc2Cl)C2(O)C=CC(=O)C3=C(O)c4ccccc4C(=O)C312 (centres undefined)", "Test Target": "SW-620 colon", "Label Value": "inactive"}

IN: How did this test come out for CC1=C(C(=O)Nc2cc(Cl)c3[nH]ncc3c2)C(c2ccc(C(F)(F)F)cc2)CC(=O)N1 (centres undefined) ?
OUT: inactive

IN: Give the logged outcome of this assay for the following compound: C/C(O)=C(\C#N)C(=O)Nc1ccc(C(F)(F)F)cc1
OUT: inactive

IN: Dear all, I need the recorded test outcome for CCc1ccc(C(=Nc2ccc(N(C)C(=O)CN3CCN(C)CC3)cc2)c2c(O)[nH]c3ccc(C(=O)OC)cc23)cc1 , thank you.
OUT: active

IN: Which outcome was assigned to CC(=[N-])N1CCC[C@@H](Nc2c3ccccc3nc3ccccc23)C1.[Cl][Pt].[NH-]CCC[NH-] in this test?
OUT: active
